Target: Human GLP-1 receptor (Homo sapiens, UniProt P43220)
Construct: expressed in transfected cells
Sequence (P43220 24-463): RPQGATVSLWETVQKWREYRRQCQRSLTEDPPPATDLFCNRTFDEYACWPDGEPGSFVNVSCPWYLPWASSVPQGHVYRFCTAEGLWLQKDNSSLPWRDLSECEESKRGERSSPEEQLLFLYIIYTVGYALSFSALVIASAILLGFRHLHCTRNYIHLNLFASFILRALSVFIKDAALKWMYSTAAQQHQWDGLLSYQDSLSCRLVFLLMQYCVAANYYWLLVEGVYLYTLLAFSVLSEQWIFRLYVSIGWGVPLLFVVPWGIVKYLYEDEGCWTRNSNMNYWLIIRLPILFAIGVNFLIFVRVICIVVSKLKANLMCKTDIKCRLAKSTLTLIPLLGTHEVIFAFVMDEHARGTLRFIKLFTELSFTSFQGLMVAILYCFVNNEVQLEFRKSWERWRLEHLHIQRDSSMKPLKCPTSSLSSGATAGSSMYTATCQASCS
Experiment: Measurement of GLP-1 receptor agonist activity (cAMP assay)
Type: cell-based
Details: CHO-K1, hGLP-1R/CHO-K1 cells, cAMP; 100% = human GLP-1 (7-36) at 2 nM, 0% = DMSO only; read-out: Emax(%)
In this section we review reported Emax values for a set of compounds.
// return numeric value only (unit: %, not printed)

Consider the following illustrative entries.
>>> print(df.to_string())
                            molecularstring  parametermeasured  readoutunit  val
0  O=C(O)c1ccc2nc(CN3CCc4cc(C(F)(F)F)c(OCc5ccccc5-c5ccccc5)cc4C3)n(C[C@@H]3CCO3)c2c1               Emax            %  147
1  O=C(O)c1cc(F)c2nc(CN3CCc4cc(C(F)(F)F)c(OCc5ccc(Cl)cc5F)cc4C3)n(C[C@@H]3CCO3)c2c1F               Emax            %  119
2  Cc1ccc(COc2cc3c(cc2C(F)(F)F)CCN(Cc2nc4ccc(C(=O)O)cc4n2C[C@@H]2CCO2)C3)nc1               Emax            %  107

State Emax (Human GLP-1 receptor (Homo sapiens, UniProt P43220)) of Cc1cc2c(cc1OCc1ccc(Cl)cc1F)CN(Cc1nc3ccc(C(=O)O)nc3n1C[C@@H]1CCO1)CC2 .
81.3

Report value: Emax, system: Human GLP-1 receptor (Homo sapiens, UniProt P43220), compound: Cc1cc(F)cc(C)c1COc1cc2c(cc1C(F)(F)F)CCN(Cc1nc3ccc(C(=O)O)cc3n1C[C@@H]1CCO1)C2
92.3

Under Human GLP-1 receptor (Homo sapiens, UniProt P43220), report Emax for C[C@H]1c2cc(OCc3ccc(Cl)cc3)c(C(F)(F)F)cc2CCN1Cc1nc2ccc(C(=O)O)c(F)c2n1C[C@@H]1CCO1
115

For Human GLP-1 receptor (Homo sapiens, UniProt P43220), give the measured Emax of the entry O=C(O)c1ccc2nc(CN3CCc4cc(C(F)(F)F)c(OCc5ccc(Cl)cc5F)cc4C3)n(C[C@@H]3CCO3)c2c1F
104

Report Emax on Human GLP-1 receptor (Homo sapiens, UniProt P43220) for this entry: COc1cc(Cl)ccc1COc1cc2c(cc1C(F)(F)F)CCN(Cc1nc3ccc(C(=O)O)cc3n1C[C@@H]1CCO1)[C@H]2C
104

Provide Emax, system Human GLP-1 receptor (Homo sapiens, UniProt P43220), entry O=C(O)c1cc(C(F)F)c2nc(CN3CCc4cc(C(F)(F)F)c(OCc5ccc(Cl)cc5F)cc4C3)n(C[C@@H]3CCO3)c2c1
102

Fill in: Emax on Human GLP-1 receptor (Homo sapiens, UniProt P43220), entry O=C(O)c1ccc2nc(CN3CCc4cc(Cl)c(OCc5ccc(Cl)cc5F)cc4C3)n(C[C@@H]3CCO3)c2n1
92.7

Give measured Emax for C[C@H]1c2nc(OCc3ccc(F)cc3)c(C(F)(F)F)cc2CCN1Cc1nc2ccc(C(=O)O)cc2n1C[C@@H]1CCO1 (Human GLP-1 receptor (Homo sapiens, UniProt P43220)).
109

Find the measured Emax of COc1ccc(COc2cc3c(cc2C(F)(F)F)CCN(Cc2nc4ccc(C(=O)O)cc4n2C[C@@H]2CCO2)[C@H]3C)cc1 with Human GLP-1 receptor (Homo sapiens, UniProt P43220) as test system.
98.7

Enter Emax (test system Human GLP-1 receptor (Homo sapiens, UniProt P43220)) for O=C(O)c1ccc2nc(CN3CCc4cc(C(F)(F)F)c(OCc5ccc(C(F)F)cc5)cc4C3)n(C[C@@H]3CCO3)c2c1
101

###

Examples of compounds with documented Emax follow.
Biological target: Human GLP-1 receptor (Homo sapiens)
Construct: expressed in transfected cells
Assay: Measurement of GLP-1 receptor agonist activity (cAMP assay)
Type: cell-based
Conditions: CHO-K1, maximum effect, cAMP increase in GLP-1 R/CHO-K1 cells; 2 nM human GLP-1 (7-36) = 100%, DMSO only = 0%; read-out: Emax
Supply the numeric figure in %, leaving out any unit text.

Solved entries:
>>> df
                                   compound  parametermeasured   val
0  C[C@H]1c2cc(OCc3ccc(Cl)cn3)c(Cl)cc2CCN1Cc1nc2ccc(C(=O)O)c(F)c2n1C[C@@H]1CCO1 [Compound I-320]               Emax  90.3
1  Cc1ccc(COc2nc3c(cc2C(F)(F)F)CCN(Cc2nc4ccc(C(=O)O)c(F)c4n2C[C@@H]2CCO2)C3)cc1 [Compound I-295]               Emax   108
2  COc1cc(C(=O)O)cc2c1nc(CN1CCc3cc(C(F)(F)F)c(OCc4ccc(C5CC5)cc4)nc3[C@@H]1C)n2C[C@@H]1CCO1 [Compound I-375]               Emax   103
3  O=C(O)c1ccc2nc(CN3CCc4cc(C(F)(F)F)c(OCc5cc(F)c(Cl)cc5F)nc4C3)n(C[C@@H]3CCO3)c2c1F [Compound I-299]               Emax   115
4  Cc1csc(COc2nc3c(cc2C(F)(F)F)CCN(Cc2nc4ccc(C(=O)O)cc4n2C[C@@H]2CCO2)[C@H]3C)n1 [Compound I-248]               Emax   124

As a next step, examine the compound that follows.
Item C[C@H]1c2cc(OCc3c(F)cc(Cl)cc3F)c(Cl)cc2CCN1Cc1nc2c(F)cc(C(=O)O)cc2n1C[C@@H]1CCO1 [Compound I-339] : provide Emax
105

###

Molecular target: Human GLP-1 receptor (Homo sapiens, UniProt P43220)
Construct: expressed in transfected cells
Assay: Measurement of GLP-1 receptor agonist activity (cAMP assay)
Type: cell-based
Settings: hGLP-1R/CHO-K1 cells, cAMP increase, 37° C. 1 hour
Protocol: Test Example 1: (Measurement of GLP-1 Receptor Agonist Activity) Human GLP-1 receptor stably expressing cells (hGLP-1R/CHO-K1 cells) are cultured in an α-MEM medium (Sigma) containing 10% FBS (Hyclone), 2% GlutaMAX (Gibco), 1% G418 (Nacalai Tesque), and 1% Penicillin-Streptomycin Mixed Solution (Sigma) at 37° C. under 5% CO2 conditions, and recovered by treating a 10 fold diluted 5.0 g/l-trypsin/5.3 mmol/l-EDTA solution (Nacalai Tesque) and cryopreserved. […]
Lab note - cut at 0.4 nM for EC50: class 1 if strictly below, class 0 if not.

Known results for compounds:
>>> df
                            molecularstring                                systemname  classlabel
0  CC(C)n1ccc(COc2cc3c(cc2C(F)(F)F)CCN(Cc2nc4ccc(C(=O)O)cc4n2C[C@@H]2CCO2)C3)n1  Human GLP-1 receptor (Homo sapiens, UniProt P43220)     class 0
1  C[C@H]1c2cc(OCc3ccc(Cl)cc3)c(C(F)(F)F)cc2CCN1Cc1nc2c(F)cc(C(=O)O)cc2n1C[C@@H]1CCO1  Human GLP-1 receptor (Homo sapiens, UniProt P43220)     class 0
2  C[C@H]1c2nc(OCc3ccc(Cl)cc3F)c(C(F)(F)F)cc2CCN1Cc1nc2ccc(C(=O)O)cc2n1C[C@@H]1CCO1  Human GLP-1 receptor (Homo sapiens, UniProt P43220)     class 1
3  Cc1cc2c(cc1OCc1ccc(Cl)cc1)CN(Cc1nc3ccc(C(=O)O)cc3n1C[C@@H]1CCO1)CC2  Human GLP-1 receptor (Homo sapiens, UniProt P43220)     class 0

// next entry
Is EC50 strictly under 0.4 nM for the entry C[C@H]1c2nc(OCc3ccc(F)cc3)c(C(F)(F)F)cc2CCN1Cc1nc2ccc(C(=O)O)cc2n1C[C@@H]1CCO1 ?
class 1

###

Biological target: Human GLP-1 receptor (Homo sapiens)
Construct: expressed in transfected cells
Assay: Measurement of GLP-1 receptor agonist activity (cAMP assay)
Format: cell-based
Details: cAMP increase in GLP-1 R/CHO-K1 cells; 2 nM human GLP-1 (7-36) = 100%, DMSO only = 0%
Examples of molecules with documented EC50 follow.
Dear colleague, please return just the value in nM, with no unit written.

Return EC50 (reported value) for this molecule: C[C@H]1c2nc(OCc3ccc(Cl)cn3)c(C(F)(F)F)cc2CCN1Cc1nc2ccc(C(=O)O)c(F)c2n1C[C@@H]1CCO1
0.102

Consider the molecule COc1cc(C(=O)O)cc2c1nc(CN1CCc3cc(Cl)c(OCc4ccc(Cl)cc4F)cc3[C@@H]1C)n2C[C@@H]1CCO1 . State its measured EC50.
0.0824

Annotate the molecule C[C@H]1c2nc(OCc3ccc(Cl)cc3F)c(C(F)(F)F)cc2CCN1Cc1nc2ccc(C(=O)O)nc2n1C[C@@H]1CCO1 with its measured EC50.
0.246

Could you please provide reported EC50 for COc1ccc(COc2nc3c(cc2C(F)(F)F)CCN(Cc2nc4ccc(C(=O)O)c(F)c4n2C[C@@H]2CCO2)[C@H]3C)cc1 ? Thanks!
0.139

Name the recorded EC50 of the item C[C@H]1c2cc(OCc3ccc(Cl)cc3Cl)c(Cl)cc2CCN1Cc1nc2c(F)cc(C(=O)O)cc2n1C[C@@H]1CCO1 in your answer.
0.325

Look up and state reported EC50 for C[C@H]1c2nc(OCc3ccc(Cl)cc3F)c(I)cc2CCN1Cc1nc2ccc(C(=O)O)cc2n1C[C@@H]1CCO1
0.099

Just for reference, patent US20240217966A1 is where these values come from.
